Measured CC50 at 4 days accompanies every entry in the list below.
- testDescription: Compound cytotoxicity, XTT-based colorimetric assay
- Format: cell-based
- conditionSummary: human, uninfected MT2 cells, day 4, XTT
- Description: Compound cytotoxicity and the corresponding CC50 values were determined using the same protocol as described in the antiviral assay except that uninfected cells were used. Cytotoxicity was assessed on day 4 in uninfected MT2 cells by using a XTT (2,3-bis[2-Methoxy-4-nitro-5-sulfophenyl]-2H-tetrazolium-5-carboxyanilide inner salt)-based colorimetric assay (Sigma-Aldrich, St Louis, Mo.).

>>> endpointvalue("COc1ccccc1NS(=O)(=O)NC(=O)N[C@@H](Cc1ccccc1)C(=O)N(C)c1ccc2ncccc2c1")
"57.7 µM"
>>> endpointvalue("COc1ccc(N(C)C(=O)[C@H](Cc2ccccc2)NC(=O)NS(=O)(=O)NCc2cnc3ccccc3c2)cc1")
"> 50 µM"

Ask: Look up CC50 at 4 days of CN(C(=O)[C@H](Cc1cc(F)cc(F)c1)NC(=O)NS(=O)(=O)N1CCc2cc(F)ccc21)c1ccc2scnc2c1 and report it.
Result: > 100 µM

Ask: Look up CC50 at 4 days of CN(C(=O)[C@H](Cc1cc(F)cc(F)c1)NC(=O)NS(=O)(=O)NCC1CC1)c1ccc2scnc2c1 and report it.
Result: > 100 µM

Ask: Look up CC50 at 4 days of COc1ccc(N(C)C(=O)[C@H](Cc2ccccc2)NC(=O)NS(=O)(=O)Nc2cc(C)cc(C)c2)cc1 and report it.
Result: > 33.3 µM

Ask: Look up CC50 at 4 days of COc1ccc(N(C)C(=O)[C@H](Cc2ccccc2)NC(=O)NS(=O)(=O)Nc2ccc(OCc3ccccc3)cc2)cc1 and report it.
Result: > 33.3 µM

Cited source: patent US10221129B2
